Provide the recorded logP for the entries that follow.
Answers are plain numbers.

Use the examples below as a reference point.
CC(C)CC(=O)NC(=O)C1CCC1    0.48
CCCCCC(=O)NC(=O)C1CCC1    0.89
O=CNC(=O)C1CCC1    -0.7
CCCC(=O)NC(=O)C1CCC1    0.41
CC(C)C(=O)NC(=O)C1CCC1    0.26

Hi team, please reply with logP for each item in this list.
1. CCCCCCCCCCCC(=O)NC(=O)C1CCC1
2. CCCCCCCC(=O)NC(=O)C1CCC1
3. CC(=O)NC(=O)C1CCC1
4. CCCCC(=O)NC(=O)C1CCC1
5. CC(C)(C)C(=O)NC(=O)C1CCC1

Result block:
1.28
0.85
-0.4
0.75
0.53
